Target: T1, 2b (Tomato aspermy virus (TAV), UniProt Q8UYT3 1-95)
T1 sequence: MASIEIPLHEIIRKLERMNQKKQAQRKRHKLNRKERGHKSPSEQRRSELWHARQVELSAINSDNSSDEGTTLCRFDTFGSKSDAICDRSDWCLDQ
Test: EMSA
Conditions: protein: recombinant; tags: His-SUMO removed by SUMO protease; chain copies: 2; miRNA duplex with mismatches, 22 nt star strand
parameter: Kd (nM)
Kindly provide the numeric value in nM only, without the unit symbol.

Need Kd, item AtmiR403 (dsRNA, 5' phosphate on both strands) RNA 1: UUAGAUUCACGCACAAACUCG RNA 2: UGUUUUGUGCUUGAAUCUAAUU
0.26
